FYI, the data here is from patent US11180474B2.

Give measured IC50 for each item. Keep answers brief.
Biological target: human TLR7 (Homo sapiens)
Sequence (Q9NYK1 27-1049): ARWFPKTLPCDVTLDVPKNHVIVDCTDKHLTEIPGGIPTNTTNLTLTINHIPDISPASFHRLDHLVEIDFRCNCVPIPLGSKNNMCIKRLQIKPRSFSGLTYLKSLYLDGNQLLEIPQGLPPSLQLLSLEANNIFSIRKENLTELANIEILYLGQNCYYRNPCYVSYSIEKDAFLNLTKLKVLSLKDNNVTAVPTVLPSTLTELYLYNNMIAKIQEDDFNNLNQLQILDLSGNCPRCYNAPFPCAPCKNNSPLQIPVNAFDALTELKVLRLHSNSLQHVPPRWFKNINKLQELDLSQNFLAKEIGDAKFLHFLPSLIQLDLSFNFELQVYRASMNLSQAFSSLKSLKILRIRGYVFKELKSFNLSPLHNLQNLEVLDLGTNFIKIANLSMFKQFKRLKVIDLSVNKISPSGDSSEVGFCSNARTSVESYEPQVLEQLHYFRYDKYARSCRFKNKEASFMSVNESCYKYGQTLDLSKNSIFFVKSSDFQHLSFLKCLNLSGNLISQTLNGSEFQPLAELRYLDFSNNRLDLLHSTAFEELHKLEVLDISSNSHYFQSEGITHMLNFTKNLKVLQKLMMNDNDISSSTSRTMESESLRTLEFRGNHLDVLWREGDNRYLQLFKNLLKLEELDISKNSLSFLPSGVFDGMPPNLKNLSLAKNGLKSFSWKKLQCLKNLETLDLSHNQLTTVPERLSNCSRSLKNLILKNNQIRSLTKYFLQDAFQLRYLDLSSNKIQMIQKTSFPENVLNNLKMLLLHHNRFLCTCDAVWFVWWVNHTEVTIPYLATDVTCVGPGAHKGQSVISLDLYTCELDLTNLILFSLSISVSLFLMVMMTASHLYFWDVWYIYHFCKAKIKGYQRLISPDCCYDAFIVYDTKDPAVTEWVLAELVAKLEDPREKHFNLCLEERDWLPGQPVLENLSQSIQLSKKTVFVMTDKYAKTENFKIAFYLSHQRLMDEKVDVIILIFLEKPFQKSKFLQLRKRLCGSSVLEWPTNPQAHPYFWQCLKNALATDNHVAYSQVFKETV
Assay: TLR7 inhibition reporter assay (HEK-Blue cells, SEAP reporter, gardiquimod stimulation)
Details: HEK-Blue cells overexpressing human TLR7, gardiquimod 7.5 μM

[Q] What value of measured IC50 is listed for COc1ccc(-c2[nH]c3ccc(C4CCN(C(=O)NCc5ccco5)CC4)cc3c2CC(F)(F)F)cc1OC ?
[A] ≥ 50000 nM

[Q] Now consider COc1ccc(-c2[nH]c3ccc(C4CCN(C5CCN(CC(O)CO)CC5)CC4)cc3c2C)cc1OC (stereo not drawn) .
[A] 230 nM

[Q] Now consider COc1ccc(-c2[nH]c3ccc(C4CCNCC4F)cc3c2C(C)C)cc1OC (single isomer, unassigned) [Example 322] .
[A] 21 nM

[Q] Now consider COc1ccc(-c2[nH]c3ccc(C4CCN(C(=O)CN5CCCC(C(=O)N(C)C)C5)CC4)cc3c2CC(F)(F)F)cc1OC (stereo not drawn) .
[A] 31 nM

[Q] Now consider COc1ccc(-c2[nH]c3ccc(C4CCN(C(=O)CN(C)C(C)C)CC4)cc3c2C(C)C)cc1OC .
[A] 29 nM

[Q] Now consider COc1ccc(-c2[nH]c3ccc(C4CCN(Cc5ccccn5)CC4)cc3c2C)cc1OC .
[A] 638 nM

[Q] Now consider COc1ccc(-c2[nH]c3ccc(C4CCN(CC(=O)N5CC[C@@H](N(C)C)C5)CC4)cc3c2CC(F)(F)F)cc1OC .
[A] 16 nM

[Q] Now consider COc1ccc(-c2[nH]c3ccc(C4CCN(C(=O)CCCn5ccnc5)CC4)cc3c2CC(F)(F)F)cc1OC .
[A] 33 nM

[Q] Now consider COc1ccc(-c2[nH]c3ccc(C4CCN(C(=O)CN5CCC(N6CCN(C)CC6)CC5)CC4)cc3c2C(C)C)cc1OC .
[A] 12 nM

[Q] Now consider COc1ccc(-c2[nH]c3ccc(C4CCN(C(=O)CN5CCCN(C(C)=O)CC5)CC4)cc3c2C(C)C)cc1OC .
[A] 45 nM

[Q] Now consider COc1ccc(-c2[nH]c3ccc(C4CCN(C(=O)CN5CCC[C@H](C(=O)NCC(N)=O)C5)CC4)cc3c2C(C)C)cc1OC .
[A] 47 nM

[Q] Now consider COc1ccc(-c2[nH]c3ccc(C4CCN(C(=O)C[C@H](C)N)CC4)cc3c2C(C)C)cc1OC .
[A] 10 nM

[Q] Now consider COc1ccc(-c2[nH]c3ccc(C4CCN(C(=O)CC(F)(F)F)CC4)cc3c2CC(F)(F)F)cc1OC .
[A] 331 nM

[Q] Now consider COc1ccc(-c2[nH]c3ccc(C4CCN(C5CCN(CCC(C)C)CC5)CC4)cc3c2C)cc1OC .
[A] 522 nM

[Q] Now consider CCc1c(-c2ccc(OC)c(OC)c2)[nH]c2ccc(C3CCN(CCNC)CC3)cc12 .
[A] 134 nM

[Q] Now consider COc1ccc(-c2[nH]c3ccc(C4CCN(C(=O)Cc5ccc(N(C)C)cc5)CC4)cc3c2CC(F)(F)F)cc1OC .
[A] 1490 nM

[Q] Now consider COc1ccc(-c2[nH]c3ccc(C4CCN(CC(=O)N5CCC(N6CCCCC6)CC5)CC4)cc3c2CC(F)(F)F)cc1OC .
[A] 19 nM

[Q] Now consider CCOC(=O)C1CC1CN1CCC(N2CCC(c3ccc4[nH]c(-c5ccc(OC)c(OC)c5)c(C)c4c3)CC2)CC1 (stereo not drawn) .
[A] 270 nM
